Just for reference, patent US5288709A is where these values come from.

Task for the reader: assign each of the following compounds its reported MIC.
System: Staphylococcus aureus ATCC 6538P
Assay: In-vitro antimicrobial activity primary screen (agar dilution MIC)
Type: cell-based
Settings: Staphylococcus aureus, ATCC6538P, 24 h, BHI agar, 20-24 h
In your response, put the unit directly after the numeric value.

Working through the 3 compounds below one at a time, give MIC for each.
1. CC[C@H]1OC(=O)[C@H](C)[C@@H](O[C@H]2C[C@@](C)(OC)[C@@H](OC(N)=O)[C@H](C)O2)[C@H](C)[C@@H](O[C@@H]2O[C@H](C)C[C@H](N(C)C)[C@H]2O)[C@](C)(O)C[C@@H](C)[C@@H]2O[C@@]1(C)[C@@H](O)[C@H]2C
2. CC[C@H]1OC(=O)[C@H](C)[C@@H](O[C@H]2C[C@@](C)(OC)[C@@H](N)[C@H](C)O2)[C@H](C)[C@@H](O[C@@H]2O[C@H](C)C[C@H](N(C)C)[C@H]2O)[C@](C)(O)C[C@@H](C)[C@@H]2O[C@@]1(C)C(=O)[C@H]2C
3. CC[C@H]1OC(=O)[C@H](C)[C@@H](O[C@H]2C[C@@](C)(OC)[C@@H](N)[C@H](C)O2)[C@H](C)[C@@H](O[C@@H]2O[C@H](C)C[C@H](N(C)C)[C@H]2O)[C@](C)(O)C[C@@H](C)[C@@H]2O[C@@]1(C)[C@@H](N)[C@H]2C

Response:
0.2 µg/mL
0.39 µg/mL
0.2 µg/mL

Request: Which MIC value is on record for CC[C@H]1OC(=O)[C@H](C)[C@@H](O[C@H]2C[C@@](C)(OC)[C@H](N)[C@H](C)O2)[C@H](C)[C@@H](O[C@@H]2O[C@H](C)C[C@H](N(C)C)[C@H]2O)[C@](C)(O)C[C@@H](C)[C@@H]2O[C@@]1(C)[C@@H](N)[C@H]2C ?
Response: 0.2 µg/mL

---

Test system: Streptococcus pyogenes C-203
Assay: In-vivo acute mouse protection assay
Set-up: species or system Streptococcus pyogenes; female Swiss albino mice
Details: C203, 168 h, oral, dosed 1 and 5 h post-infection, observed 7 days
Lab note: anything with ED50 below 30 mg/kg is marked Satisfied; values at 30 mg/kg or higher are marked Not satisfied.

Request: Report whether reported ED50 is lower than 30 mg/kg (strictly) for CC[C@H]1OC(=O)[C@H](C)[C@@H](O[C@H]2C[C@@](C)(OC)[C@@H](N)[C@H](C)O2)[C@H](C)[C@@H](O[C@@H]2O[C@H](C)C[C@H](N(C)C)[C@H]2O)[C@](C)(O)C[C@@H](C)[C@@H]2O[C@@]1(C)[C@@H](O)[C@H]2C
Response: Not satisfied

Request: Report whether reported ED50 is lower than 30 mg/kg (strictly) for CC[C@H]1OC(=O)[C@H](C)[C@@H](O[C@H]2C[C@@](C)(OC)[C@H](N)[C@H](C)O2)[C@H](C)[C@@H](O[C@@H]2O[C@H](C)C[C@H](N(C)C)[C@H]2O)[C@](C)(O)C[C@@H](C)[C@@H]2O[C@@]1(C)[C@@H](O)[C@H]2C
Response: Not satisfied

Request: Report whether reported ED50 is lower than 30 mg/kg (strictly) for CC[C@H]1OC(=O)[C@H](C)[C@@H](O[C@H]2C[C@@](C)(OC)[C@@H](O)[C@H](C)O2)[C@H](C)[C@@H](O[C@@H]2O[C@H](C)C[C@H](N(C)C)[C@H]2O)[C@](C)(O)C[C@@H](C)[C@@H]2O[C@@]1(C)C(=O)[C@H]2C
Response: Satisfied

New cases:
Request: Report whether reported ED50 is lower than 30 mg/kg (strictly) for CC[C@H]1OC(=O)[C@H](C)[C@@H](O[C@H]2C[C@@](C)(OC)[C@@H](O)[C@H](C)O2)[C@H](C)[C@@H](O[C@@H]2O[C@H](C)C[C@H](N(C)C)[C@H]2O)[C@](C)(O)C[C@@H](C)[C@@H]2O[C@@]1(C)[C@@H](O)[C@H]2C
Response: Satisfied

Request: Report whether reported ED50 is lower than 30 mg/kg (strictly) for CC[C@H]1OC(=O)[C@H](C)[C@@H](O[C@H]2C[C@@](C)(OC)[C@@H](O)[C@H](C)O2)[C@H](C)[C@@H](O[C@@H]2O[C@H](C)C[C@H](N(C)C)[C@H]2O)[C@](C)(O)C[C@@H](C)[C@@H]2O[C@@]1(C)[C@@H](N)[C@H]2C
Response: Satisfied

---

System: Escherichia coli SS
Experiment: In-vitro antimicrobial activity primary screen (agar dilution MIC)
Assay type: cell-based
Conditions: Escherichia coli, 24 h, BHI agar, 20-24 h
Task for the reader: assign each of the following molecules its reported MIC.
One number for each entry, in mg/L.

// below: answered molecules
Request: Which MIC value is on record for CC[C@H]1OC(=O)[C@H](C)[C@@H](O[C@H]2C[C@@](C)(OC)[C@@H](O)[C@H](C)O2)[C@H](C)[C@@H](O[C@@H]2O[C@H](C)C[C@H](N(C)C)[C@H]2O)[C@](C)(O)C[C@@H](C)[C@@H]2O[C@@]1(C)C(=O)[C@H]2C ?
Response: 0.2

Request: Which MIC value is on record for CC[C@H]1OC(=O)[C@H](C)[C@@H](O[C@H]2C[C@@](C)(OC)[C@H](NS(C)(=O)=O)[C@H](C)O2)[C@H](C)[C@@H](O[C@@H]2O[C@H](C)C[C@H](N(C)C)[C@H]2O)[C@](C)(O)C[C@@H](C)[C@@H]2O[C@@]1(C)C(=O)[C@H]2C ?
Response: 0.78

Request: Which MIC value is on record for CC[C@H]1OC(=O)[C@H](C)[C@@H](O[C@H]2C[C@@](C)(OC)[C@H](N)[C@H](C)O2)[C@H](C)[C@@H](O[C@@H]2O[C@H](C)C[C@H](N(C)C)[C@H]2O)[C@](C)(O)C[C@@H](C)[C@@H]2O[C@@]1(C)C(=O)[C@H]2C ?
Response: 0.2

Request: Which MIC value is on record for CC[C@H]1OC(=O)[C@H](C)[C@@H](O[C@H]2C[C@@](C)(OC)[C@@H](O)[C@H](C)O2)[C@H](C)[C@@H](O[C@@H]2O[C@H](C)C[C@H](N(C)C)[C@H]2O)[C@](C)(O)C[C@@H](C)C(=O)[C@H](C)[C@@H](O)[C@]1(C)O [Std, Erythromycin A, reference compound] ?
Response: 0.2

Consider the additional molecule presented here.
Request: Which MIC value is on record for CC[C@H]1OC(=O)[C@H](C)[C@@H](O[C@H]2C[C@@](C)(OC)[C@H](N)[C@H](C)O2)[C@H](C)[C@@H](O[C@@H]2O[C@H](C)C[C@H](N(C)C)[C@H]2O)[C@](C)(O)C[C@@H](C)[C@@H]2O[C@@]1(C)[C@@H](O)[C@H]2C ?
Response: 0.2

---

Test system: Streptococcus pyrogenes 2548 INDUC
Assay: In-vitro antimicrobial activity primary screen (agar dilution MIC)
Format: cell-based
Details: Streptococcus, 2548INDUC, 24 h, BHI agar, 20-24 h
quantity_name: MIC (µg/mL)
Answers are plain numbers, in µg/mL.

// below: answered molecules
Request: Which MIC value is on record for CC[C@H]1OC(=O)[C@H](C)[C@@H](O[C@H]2C[C@@](C)(OC)[C@@H](O)[C@H](C)O2)[C@H](C)[C@@H](O[C@@H]2O[C@H](C)C[C@H](N(C)C)[C@H]2O)[C@](C)(O)C[C@@H](C)C(=O)[C@H](C)[C@@H](O)[C@]1(C)O [Std, Erythromycin A, reference compound] ?
Response: 3.1

Request: Which MIC value is on record for CC[C@H]1OC(=O)[C@H](C)[C@@H](O[C@H]2C[C@@](C)(OC)[C@@H](O)[C@H](C)O2)[C@H](C)[C@@H](O[C@@H]2O[C@H](C)C[C@H](N(C)C)[C@H]2O)[C@](C)(O)C[C@@H](C)[C@@H]2O[C@@]1(C)[C@@H](N)[C@H]2C ?
Response: 3.1

Request: Which MIC value is on record for CC[C@H]1OC(=O)[C@H](C)[C@@H](O[C@H]2C[C@@](C)(OC)[C@@H](O)[C@H](C)O2)[C@H](C)[C@@H](O[C@@H]2O[C@H](C)C[C@H](N(C)C)[C@H]2O)[C@](C)(OC)C[C@@H](C)[C@@H]2O[C@@]1(C)[C@@H](O)[C@H]2C [Example 28A] ?
Response: 3.1

Consider the additional molecule presented here.
Request: Which MIC value is on record for CC[C@H]1OC(=O)[C@H](C)[C@@H](O[C@H]2C[C@@](C)(OC)[C@@H](NS(C)(=O)=O)[C@H](C)O2)[C@H](C)[C@@H](O[C@@H]2O[C@H](C)C[C@H](N(C)C)[C@H]2O)[C@](C)(O)C[C@@H](C)[C@@H]2O[C@@]1(C)C(=O)[C@H]2C ?
Response: 3.1
